# protocol-notes: Drug level in ICR mouse bile at 50 mg/kg, po after 2.5 hrs
# Assay type: ADME, organism-based
# Parameters: dose 50 mg/kg, route oral
# condition: read-out: Drug uptake
endpoint-label: concentration at 2.5 h (nM)

>  <entry-smiles>
Cc1ccc(C)c(Oc2ccncc2C(=O)N2CCN(C3CC3)c3ccccc32)c1

>  <endpoint-label>
concentration at 2.5 h

>  <value-observed>
2000

$$$$

====

# protocol-notes: AUC (0 to 4.5 hrs) in ICR mouse bile at 50 mg/kg, po
# Assay type: ADME, organism-based
# Parameters: time < 4.5 hr, dose 50 mg/kg, route oral
endpoint-label: AUC(0-t) at 4.5 h (ng·h/mL)

>  <entry-smiles>
Cc1ccc(C)c(Oc2ccncc2C(=O)N2CCN(C3CC3)c3ccccc32)c1

>  <endpoint-label>
AUC(0-t) at 4.5 h

>  <scale-unit>
ng·h/mL

>  <value-observed>
3380

$$$$

====

# protocol-notes: Drug level in ICR mouse gall bladder at 50 mg/kg, po after 0.5 hrs
# Assay type: ADME, organism-based
# Parameters: dose 50 mg/kg, route oral
# condition: read-out: Drug uptake

>  <entry-smiles>
Cc1ccc(C)c(Oc2ccncc2C(=O)N2CCN(C3CC3)c3ccccc32)c1

>  <concentration at 0.5 h>
294 ng/g

$$$$

====

# protocol-notes: Cmax in ICR mouse bile at 50 mg/kg, po
# Format: ADME, organism-based
# Set-up: dose 50 mg/kg, route oral
endpoint-label: Cmax (µM)

>  <entry-smiles>
Cc1ccc(C)c(Oc2ccncc2C(=O)N2CCN(C3CC3)c3ccccc32)c1

>  <scale-unit>
µM

>  <value-observed>
3.7

$$$$

====

# protocol-notes: AUC (0 to infinity) in Sprague-Dawley rat at 5 mg/kg, po
# Assay type: ADME, organism-based
# Parameters: time infinity, dose 5 mg/kg, route oral
# condition: plasma

>  <entry-smiles>
Cc1ccc(C)c(Oc2ccncc2C(=O)N2CCN(C3CC3)c3ccccc32)c1

>  <AUC(0-inf)>
155 ng·h/mL

$$$$

====

# protocol-notes: AUC (0 to t) in Sprague-Dawley rat at 5 mg/kg, po
# Type: ADME, organism-based
# Design: dose 5 mg/kg, route oral
# condition: plasma

>  <entry-smiles>
Cc1ccc(C)c(Oc2ccncc2C(=O)N2CCN(C3CC3)c3ccccc32)c1

>  <AUC(0-t) (ng·h/mL)>
147

$$$$

====

# protocol-notes: Drug level in ICR mouse gall bladder at 50 mg/kg, po after 4.5 hrs
# Type: ADME, organism-based
# Parameters: dose 50 mg/kg, route oral
# condition: read-out: Drug uptake

>  <entry-smiles>
Cc1ccc(C)c(Oc2ccncc2C(=O)N2CCN(C3CC3)c3ccccc32)c1

>  <scale-unit>
ng/g

>  <concentration at 4.5 h>
217

$$$$

====

# protocol-notes: Plasma concentration in ICR mouse at 50 mg/kg, po after 0.5 hrs
# Type: ADME, organism-based
# Parameters: dose 50 mg/kg, route oral

>  <entry-smiles>
Cc1ccc(C)c(Oc2ccncc2C(=O)N2CCN(C3CC3)c3ccccc32)c1

>  <concentration at 0.5 h (µM)>
3.1

$$$$

====

# protocol-notes: Half life in Sprague-Dawley rat at 5 mg/kg, po
# Type: ADME, organism-based
# Parameters: dose 5 mg/kg, route oral
# condition: in vivo

>  <entry-smiles>
Cc1ccc(C)c(Oc2ccncc2C(=O)N2CCN(C3CC3)c3ccccc32)c1

>  <scale-unit>
h

>  <half-life>
1.5

$$$$

====

# protocol-notes: Drug level in ICR mouse gall bladder at 50 mg/kg, po after 1 hr
# Format: ADME, organism-based
# Parameters: dose 50 mg/kg, route oral
# condition: read-out: Drug uptake
endpoint-label: concentration at 1 h (ng/g)

>  <entry-smiles>
Cc1ccc(C)c(Oc2ccncc2C(=O)N2CCN(C3CC3)c3ccccc32)c1

>  <value-observed>
393

$$$$

====

# protocol-notes: Drug level in ICR mouse bile at 50 mg/kg, po after 1 hr
# Assay type: ADME, organism-based
# Parameters: dose 50 mg/kg, route oral
# condition: read-out: Drug uptake
endpoint-label: concentration at 1 h (nM)

>  <entry-smiles>
Cc1ccc(C)c(Oc2ccncc2C(=O)N2CCN(C3CC3)c3ccccc32)c1

>  <endpoint-label>
concentration at 1 h

>  <value-observed>
2100

$$$$

====

# protocol-notes: Cmax in ICR mouse gall bladder at 50 mg/kg, po
# Type: ADME, organism-based
# Parameters: dose 50 mg/kg, route oral

>  <entry-smiles>
Cc1ccc(C)c(Oc2ccncc2C(=O)N2CCN(C3CC3)c3ccccc32)c1

>  <Cmax [ng/g]>
523

$$$$

====

# protocol-notes: Plasma concentration in ICR mouse at 50 mg/kg, po after 2.5 hrs
# Assay type: ADME, organism-based
# Parameters: dose 50 mg/kg, route oral
endpoint-label: concentration at 2.5 h (nM)

>  <entry-smiles>
Cc1ccc(C)c(Oc2ccncc2C(=O)N2CCN(C3CC3)c3ccccc32)c1

>  <endpoint-label>
concentration at 2.5 h

>  <value-observed>
2000

$$$$

====

# protocol-notes: Drug level in ICR mouse bile at 50 mg/kg, po after 0.5 hrs
# Type: ADME, organism-based
# Set-up: dose 50 mg/kg, route oral
# condition: read-out: Drug uptake

>  <entry-smiles>
Cc1ccc(C)c(Oc2ccncc2C(=O)N2CCN(C3CC3)c3ccccc32)c1

>  <concentration at 0.5 h>
1700 nM

$$$$

====

# protocol-notes: Cmax in Sprague-Dawley rat at 5 mg/kg, po
# Assay type: ADME, organism-based
# Design: dose 5 mg/kg, route oral
# condition: in vivo
endpoint-label: Cmax

>  <entry-smiles>
Cc1ccc(C)c(Oc2ccncc2C(=O)N2CCN(C3CC3)c3ccccc32)c1

>  <value-observed>
56 ng/mL

$$$$

====

# protocol-notes: Drug level in ICR mouse bile at 50 mg/kg, po after 4.5 hrs
# Format: ADME, organism-based
# Parameters: dose 50 mg/kg, route oral
# condition: read-out: Drug uptake

>  <entry-smiles>
Cc1ccc(C)c(Oc2ccncc2C(=O)N2CCN(C3CC3)c3ccccc32)c1

>  <concentration at 4.5 h (nM)>
2000

$$$$

====

# protocol-notes: Cmax in ICR mouse plasma at 50 mg/kg, po
# Type: ADME, organism-based
# Set-up: dose 50 mg/kg, route oral

>  <entry-smiles>
Cc1ccc(C)c(Oc2ccncc2C(=O)N2CCN(C3CC3)c3ccccc32)c1

>  <Cmax (µM)>
3.6

$$$$

====

# protocol-notes: MRT in Sprague-Dawley rat at 5 mg/kg, po
# Format: ADME, organism-based
# Set-up: dose 5 mg/kg, route oral
# condition: in vivo

>  <entry-smiles>
Cc1ccc(C)c(Oc2ccncc2C(=O)N2CCN(C3CC3)c3ccccc32)c1

>  <MRT>
2.4 h

$$$$

====

# protocol-notes: Plasma concentration in ICR mouse at 50 mg/kg, po after 4.5 hrs
# Type: ADME, organism-based
# Parameters: dose 50 mg/kg, route oral

>  <entry-smiles>
Cc1ccc(C)c(Oc2ccncc2C(=O)N2CCN(C3CC3)c3ccccc32)c1

>  <concentration at 4.5 h [nM]>
510

$$$$

====

# protocol-notes: AUC (0 to 4.5 hrs) in ICR mouse gall bladder at 50 mg/kg, po
# Assay type: ADME, organism-based
# Design: time < 4.5 hr, dose 50 mg/kg, route oral
endpoint-label: AUC(0-t) at 4.5 h (ng·h/mL)

>  <entry-smiles>
Cc1ccc(C)c(Oc2ccncc2C(=O)N2CCN(C3CC3)c3ccccc32)c1

>  <value-observed>
1290

$$$$

====

# protocol-notes: Plasma concentration in ICR mouse at 50 mg/kg, po after 1 hr
# Type: ADME, organism-based
# Set-up: dose 50 mg/kg, route oral

>  <entry-smiles>
Cc1ccc(C)c(Oc2ccncc2C(=O)N2CCN(C3CC3)c3ccccc32)c1

>  <concentration at 1 h>
2300 nM

$$$$

====

# protocol-notes: AUC (0 to 4.5 hrs) in ICR mouse plasma at 50 mg/kg, po
# Type: ADME, organism-based
# Design: time < 4.5 hr, dose 50 mg/kg, route oral
endpoint-label: AUC(0-t) at 4.5 h (ng·h/mL)

>  <entry-smiles>
Cc1ccc(C)c(Oc2ccncc2C(=O)N2CCN(C3CC3)c3ccccc32)c1

>  <value-observed>
3130

$$$$

====

# protocol-notes: Drug level in ICR mouse gall bladder at 50 mg/kg, po after 2.5 hrs
# Assay type: ADME, organism-based
# Design: dose 50 mg/kg, route oral
# condition: read-out: Drug uptake

>  <entry-smiles>
Cc1ccc(C)c(Oc2ccncc2C(=O)N2CCN(C3CC3)c3ccccc32)c1

>  <concentration at 2.5 h [ng/g]>
306

$$$$
